test system: E. coli TESEC Mtb Alr; test: growth (OD600 after 10 h); higher = more growth (less inhibition); settings: arabinose 10000000 nM; compound 0.1 mM; raw OD600 reference: median of DMSO wells […], cell-free background 0.052
Categories are defined by ranges of growth, namely I: < 0.06; II: ≥ 0.06 and < 0.1; III: ≥ 0.1

Given O=C(O)CCc1nc(-c2ccccc2)c(-c2ccccc2)o1 , name the class its growth places it in. III

Given O=c1[nH]c(=O)n([C@H]2C[C@H](O)[C@@H](CO)O2)cc1F , name the class its growth places it in. II

Given CC(C)NNC(=O)c1ccncc1 [Iproniazide phosphate] , name the class its growth places it in. III

Given Clc1ccccc1C(c1ccccc1)(c1ccccc1)n1ccnc1 , name the class its growth places it in. I

Given Cc1ncc([N+](=O)[O-])n1CC(O)CCl (centres undefined) , name the class its growth places it in. III

Given OCCN(CCO)c1nc(N2CCCCC2)c2nc(N(CCO)CCO)nc(N3CCCCC3)c2n1 , name the class its growth places it in. II

###

test system: E. coli TESEC Mtb Alr; assay: growth (OD600 after 10 h); higher = more growth (less inhibition); conditions: arabinose 100000 nM; compound 0.1 mM; raw OD600 reference: median of DMSO wells 0.201, cell-free background 0.041
readout kind: growth
In your answer, state the number alone without any accompanying words.

Quick one: growth of CC(=O)CC(c1ccc([N+](=O)[O-])cc1)c1c(O)c2ccccc2oc1=O (stereo not drawn) ? 0.175

###

tested on: E. coli TESEC Alr+ wild-type control; assay: growth (OD600 after 10 h); higher = more growth (less inhibition); settings: compound 0.1 mM; raw OD600 reference: median of DMSO wells 0.49, cell-free background 0.052
Counter-ions that a name gives are not always drawn.
Hi, to clarify the labels: 1 covers growth from 0.5 upward, -1 covers anything below 0.5.

See these solved cases before continuing.
>>> assigned_category("Nc1nc2c(ncn2COCCO)c(=O)[nH]1")
-1
>>> assigned_category("CN1CCC(=C2c3ccccc3Sc3ccccc32)CC1 [Pimethixene maleate]")
-1
>>> assigned_category("COC(=O)Nc1nc2cc([S+]([O-])c3ccccc3)ccc2[nH]1 (stereo unspecified)")
1
>>> assigned_category("CNS(=O)(=O)Cc1ccc2[nH]cc(CCN(C)C)c2c1 [Sumatriptan succinate]")
-1
>>> assigned_category("Clc1ccc(Cn2c(CN3CCCC3)nc3ccccc32)cc1 [Clemizole hydrochloride]")
-1

Please tell me: is the compound CC(c1cc2ccccc2s1)N(O)C(N)=O (stereo unspecified) at or over 0.5 in terms of growth? -1

Please tell me: is the compound CCc1cc(C(N)=S)ccn1 [Ethionamide] at or over 0.5 in terms of growth? 1

Please tell me: is the compound Cn1cnc2c1c(=O)[nH]c(=O)n2C at or over 0.5 in terms of growth? -1

Please tell me: is the compound Nc1ccn([C@H]2CC[C@@H](CO)O2)c(=O)n1 at or over 0.5 in terms of growth? -1

Please tell me: is the compound CC(=O)O[C@H]1C[C@@H]2CC[C@@H]3[C@H](CC[C@@]4(C)[C@H]3C[C@H]([N+]3(C)CCCCC3)[C@@H]4OC(C)=O)[C@@]2(C)C[C@@H]1N1CCCCC1 [Vecuronium bromide] at or over 0.5 in terms of growth? -1
